Tested on: NIH3T3
experiment.notes: qHTS assay to identify novel small-molecules to repurpose for Merkel cell carcinoma treatment (AID 1296009); note: nearly all actives have a fitted effect of over 60% in size
condition.notes: MCC and control cell lines, CellTiter-Glo viability, 72 h; at 44.8 µM (top of the series) unless noted
Records with an inconclusive call do not appear. The source made the active and inactive calls. Calls come from the whole dose curve; as a rule, active = well fitted inhibition curve with a large enough effect; inconclusive = small, poorly fitted or top-dose-only effect; inactive = flat fitted curve, though single readings scatter.
property.measured: outcome

COC1=CC(=O)O[C@@H](/C=C/c2ccccc2)[C@@H]1O: inactive
N[C@H]1C[C@H]1c1ccc(-c2cccc(O)c2)cc1: inactive
COc1cc(/C=C/CO)ccc1O[C@@H]1O[C@H](CO)[C@@H](O)[C@H](O)[C@H]1O: inactive
CC1(C)CCCC2(C)C3=C(C(=O)OC3O)C(O)CC12 (stereo not drawn): inactive
C[C@@H]1O[C@@H](O[C@@H]2[C@@H](O)[C@@H](O)[C@H](O[C@@H]3[C@@H](O)[C@@H](O[C@]4(CO)O[C@H](CO)[C@@H](O)[C@@H]4OC(=O)/C=C/c4ccc(O)cc4)O[C@H](CO)[C@H]3OC(=O)/C=C/c3ccc(O)cc3)O[C@H]2C)[C@H](O)[C@H](O)[C@H]1O: inactive [at 9.27 µM]

Report measured outcome on NIH3T3; entry: `COc1ccc([C@H]2Cc3cccc(O)c3C(=O)O2)cc1` inactive

Tell me its outcome on NIH3T3: C[C@@H]1O[C@@H](O[C@@H]2[C@@H](O)[C@H](O[C@@H]3[C@@H](O)[C@@H](O)[C@H](O[C@H]4[C@H](OC(=O)[C@]56CCC(C)(C)C[C@H]5C5=CCC7[C@@]8(C)C[C@H](O)[C@H](O[C@@H]9O[C@@H](C)[C@H](O)[C@@H](O)[C@H]9O)[C@@](C)(CO)C8CC[C@@]7(C)[C@]5(C)C[C@H]6O)O[C@H](C)[C@H](O)[C@@H]4O)O[C@H]3C)OC[C@H]2O)[C@H](O)[C@H](O)[C@H]1O (stereo partly drawn) inactive [at 9.27 µM]

Fill in outcome for CC1CC(=O)C2=C(O1)OC1(C)CCC3C(C)(C)C=CC(=O)C3(C)C1C2 (stereo not drawn) tested with NIH3T3. inactive
